# System: rodent lifetime carcinogenesis bioassay, tumor incidence TD50
# ASSAY REMARKS: carcinogenic potency in animals, long-term in vivo studies, CPDB compilation (AID 1745844)
# CONDITIONS: rat; strain CB; males; i.p.; site: liver; lesion: hepatoma; dosed 26 weeks; study length 86 weeks
Calls of active or inactive are those of the source. How the calls were made is not given here.

# SMILES NOTATION, TESTED SYSTEM, TD50
measured = [
    ("CN(N=O)c1ccc(N=O)cc1", "rodent lifetime carcinogenesis bioassay, tumor incidence TD50", "1.5 mg/kg/day (inactive)"),
]

---

# System: rodent lifetime carcinogenesis bioassay, tumor incidence TD50
# ASSAY REMARKS: carcinogenic potency in animals, long-term in vivo studies, CPDB compilation (AID 1745844)
# CONDITIONS: mouse; strain B6C3F1; males; in feed; site: liver; lesion: hepatocellular adenoma + hepatocellular carcinoma + neoplastic nodule; dosed 53 weeks; study length 92 weeks
ATTRIBUTE MEASURED: TD50

# SMILES NOTATION, ATTRIBUTE MEASURED, EXPERIMENTAL RESULT
rows = [
    ("O=Nc1ccc(Nc2ccccc2)cc1", "TD50", "340 mg/kg/day"),
]

---

# Tested on: rodent lifetime carcinogenesis bioassay, tumor incidence TD50
# ASSAY REMARKS: carcinogenic potency in animals, long-term in vivo studies, CPDB compilation (AID 1745844)
# CONDITIONS: mouse; strain B6C3F1; males; in drinking water; site: liver; lesion: hepatoblastoma; dosed 103 weeks; study length 103 weeks

# SMILES NOTATION, TESTED SYSTEM, TD50
records = [
    ("c1ccncc1", "rodent lifetime carcinogenesis bioassay, tumor incidence TD50", "68.1 mg/kg/day"),
]

---

# Test system: rodent lifetime carcinogenesis bioassay, tumor incidence TD50
# ASSAY REMARKS: carcinogenic potency in animals, long-term in vivo studies, CPDB compilation (AID 1745844)
# CONDITIONS: hamster; strain Syrian Golden; females; in feed; site: bile duct; lesion: cholangioma; dosed 26 weeks; study length 71 weeks
ATTRIBUTE MEASURED: TD50 (mg/kg/day)

# SMILES NOTATION, TESTED SYSTEM, EXPERIMENTAL RESULT
data = [
    ("O=[N+]([O-])c1ccc2c3c(cccc13)CC2", "rodent lifetime carcinogenesis bioassay, tumor incidence TD50", 354),
]

---

# Test system: rodent lifetime carcinogenesis bioassay, tumor incidence TD50
# ASSAY REMARKS: carcinogenic potency in animals, long-term in vivo studies, CPDB compilation (AID 1745844)
# CONDITIONS: rat; strain Charles River CD (Sprague-Dawley); males; by gavage; site: liver; lesion: hepatocellular adenoma; dosed 104 weeks; study length 104 weeks
The source made the active and inactive calls. No rule for the calls is given here.

# COMPOUND, TD50
rows = [
    ("Cn1cc(OCC(O)CNC(C)(C)C)c2ccccc2c1=O (stereo unspecified)", "384 mg/kg/day (inactive)"),
]

---

# Tested on: rodent lifetime carcinogenesis bioassay, tumor incidence TD50
# ASSAY REMARKS: carcinogenic potency in animals, long-term in vivo studies, CPDB compilation (AID 1745844)
# CONDITIONS: rat; strain Fischer 344; females; by gavage; site: liver; lesion: hepatocellular adenoma + hepatoblastoma + hepatocellular carcinoma; dosed 102 weeks; study length 104 weeks

# SMILES NOTATION, VALUE UNIT, TD50
rows = [
    ("C=C1C/C(=C/C)C(=O)O[C@@H]2CCN3CC=C(COC(=O)[C@@]1(O)CO)[C@H]23", "mg/kg/day", 1.2),
]

---

# Tested on: rodent lifetime carcinogenesis bioassay, tumor incidence TD50
# ASSAY REMARKS: carcinogenic potency in animals, long-term in vivo studies, CPDB compilation (AID 1745844)
# CONDITIONS: mouse; strain albino; females; in feed; site: liver; lesion: hepatoma; dosed 52 weeks; study length 79 weeks
ATTRIBUTE MEASURED: TD50

# SMILES NOTATION, EXPERIMENTAL RESULT
data = [
    ("CN(C)c1ccc(C(=N)c2ccc(N(C)C)cc2)cc1", "94.3 mg/kg/day"),
]

---

# Tested on: rodent lifetime carcinogenesis bioassay, tumor incidence TD50
# ASSAY REMARKS: carcinogenic potency in animals, long-term in vivo studies, CPDB compilation (AID 1745844)
# CONDITIONS: mouse; strain C57BL/6; females; in feed; site: pituitary gland; lesion: adenoma; dosed 118 weeks; study length 143 weeks
ATTRIBUTE MEASURED: TD50

# SMILES NOTATION, ATTRIBUTE MEASURED, EXPERIMENTAL RESULT
measured = [
    ("CC/C(=C(/CC)c1ccc(O)cc1)c1ccc(O)cc1", "TD50", "0.0259 mg/kg/day"),
]

---

# Test system: rodent lifetime carcinogenesis bioassay, tumor incidence TD50
# ASSAY REMARKS: carcinogenic potency in animals, long-term in vivo studies, CPDB compilation (AID 1745844)
# CONDITIONS: rat; strain Fischer 344; males; by gavage; site: subcutaneous tissue; lesion: fibrosarcoma + osteosarcoma + sarcoma, NOS; dosed 106 weeks; study length 108 weeks

# SMILES NOTATION, TESTED SYSTEM, VALUE UNIT, TD50
data = [
    ("Cc1ccc(N=C=O)cc1N=C=O", "rodent lifetime carcinogenesis bioassay, tumor incidence TD50", "mg/kg/day", 103),
]

---

# System: rodent lifetime carcinogenesis bioassay, tumor incidence TD50
# ASSAY REMARKS: carcinogenic potency in animals, long-term in vivo studies, CPDB compilation (AID 1745844)
# CONDITIONS: rat; strain Fischer 344; males; in feed; site: adrenal medulla; lesion: pheochromocytoma benign, bilateral + pheochromocytoma, malignant + pheochromocytoma, benign; dosed 103 weeks; study length 104 weeks
ATTRIBUTE MEASURED: TD50 (mg/kg/day)

# SMILES NOTATION, EXPERIMENTAL RESULT
data = [
    ("COc1ccccc1[N+](=O)[O-]", 109),
]

---

# Tested on: rodent lifetime carcinogenesis bioassay, tumor incidence TD50
# ASSAY REMARKS: carcinogenic potency in animals, long-term in vivo studies, CPDB compilation (AID 1745844)
# CONDITIONS: rat; strain Fischer 344; females; inhaled; site: tongue; lesion: squamous-cell papilloma; dosed 104 weeks; study length 104 weeks

# SMILES NOTATION, TESTED SYSTEM, TD50, mg/kg/day
measured = [
    ("C=CC(=C)Cl", "rodent lifetime carcinogenesis bioassay, tumor incidence TD50", 53.5),
]

---

# Test system: rodent lifetime carcinogenesis bioassay, tumor incidence TD50
# ASSAY REMARKS: carcinogenic potency in animals, long-term in vivo studies, CPDB compilation (AID 1745844)
# CONDITIONS: rat; strain Wistar; females; in feed; site: liver; lesion: nodular hyperplasia; dosed 96 weeks; study length 96 weeks
ATTRIBUTE MEASURED: TD50

# SMILES NOTATION, EXPERIMENTAL RESULT
data = [
    ("CN(C)N=O", "0.113 mg/kg/day"),
]

---

# Tested on: rodent lifetime carcinogenesis bioassay, tumor incidence TD50
# ASSAY REMARKS: carcinogenic potency in animals, long-term in vivo studies, CPDB compilation (AID 1745844)
# CONDITIONS: rat; strain Fischer 344; females; in feed; site: Zymbal's gland; lesion: one or several types; types not named; dosed 53 weeks; study length 78 weeks
ATTRIBUTE MEASURED: TD50

# SMILES NOTATION, ATTRIBUTE MEASURED, EXPERIMENTAL RESULT
rows = [
    ("Cn1c(N)nc2c3cccnc3ccc21", "TD50", "2.26 mg/kg/day"),
]

---

# Tested on: rodent lifetime carcinogenesis bioassay, tumor incidence TD50
# ASSAY REMARKS: carcinogenic potency in animals, long-term in vivo studies, CPDB compilation (AID 1745844)
# CONDITIONS: mouse; strain Swiss; females; by gavage; site: lung; lesion: one or several types; types not named; dosed 40 weeks; study length 55 weeks
Parameter TD50: see the listing below.

# SMILES NOTATION, TD50
measured = [
    ("NN", "5.67 mg/kg/day"),
    ("CN(C)N", "16 mg/kg/day"),
]

---

# Tested on: rodent lifetime carcinogenesis bioassay, tumor incidence TD50
# ASSAY REMARKS: carcinogenic potency in animals, long-term in vivo studies, CPDB compilation (AID 1745844)
# CONDITIONS: mouse; strain B6C3F1; males; in feed; site: lung; lesion: adenoma; dosed 104 weeks; study length 104 weeks
Calls of active or inactive are those of the source. How the calls were made is not given here.
ATTRIBUTE MEASURED: TD50

# COMPOUND, EXPERIMENTAL RESULT
records = [
    ("C[C@@H]1CCC[C@H](C)N1CCCC(O)(c1ccccc1)c1ccccn1 (stereo partly specified)", "947 mg/kg/day (inactive)"),
]
